ASSAY DETAILS: Clearance in rhesus monkey at 1 mg/kg administered as iv infusion for 30 mins and measured after 24 hrs by ESI-LC/MS/MS analysis
Type: ADME, organism-based, Macaca mulatta
TEST CONTEXT: in vivo
ENDPOINT LABEL: clearance

INSERT INTO results (test_smiles, endpoint_label, result) VALUES
  ('Cc1nc2c(-c3nnc[nH]3)cc(-c3ccnc(C#N)c3)cc2n1-c1ccnc2c(F)ccc(F)c12', 'clearance', '7.83 mL/min/kg');

----------
ASSAY DETAILS: Oral bioavailability in cynomolgus monkey at 5 mg/kg dosed via gavage after 24 hrs by ESI-LC/MS/MS analysis
Assay type: ADME, organism-based, Macaca fascicularis
TEST CONTEXT: in vivo
Entries and their bioavailability
ENDPOINT LABEL: bioavailability (%)

INSERT INTO results (test_smiles, numeric_value) VALUES
  ('Cc1nc2c(-c3nnc[nH]3)cc(-c3ccnc(N)c3F)cc2n1-c1ccnc2c(F)ccc(F)c12', 64),
  ('Cc1nc2c(-c3nnc[nH]3)cc(-c3ccnc(C#N)c3)cc2n1-c1ccnc2c(F)ccc(F)c12', 35);

The measurements presented in this section are drawn from ChEMBL document CHEMBL4616704.
